- Test Target: CK2A1 (CK2α/β) (Homo sapiens)
- Sequence (P68400 whole entry, species assumed): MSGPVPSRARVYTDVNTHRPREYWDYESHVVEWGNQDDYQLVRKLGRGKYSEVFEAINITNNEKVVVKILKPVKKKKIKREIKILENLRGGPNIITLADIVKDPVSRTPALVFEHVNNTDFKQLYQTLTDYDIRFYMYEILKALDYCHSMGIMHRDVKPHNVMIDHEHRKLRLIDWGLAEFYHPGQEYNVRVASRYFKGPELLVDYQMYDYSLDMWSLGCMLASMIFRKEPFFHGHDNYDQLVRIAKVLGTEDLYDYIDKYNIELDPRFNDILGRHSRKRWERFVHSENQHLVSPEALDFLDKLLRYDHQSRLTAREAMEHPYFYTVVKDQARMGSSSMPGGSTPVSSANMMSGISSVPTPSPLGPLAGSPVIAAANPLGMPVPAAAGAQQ
- Sequence (P67870 whole entry partner, species assumed): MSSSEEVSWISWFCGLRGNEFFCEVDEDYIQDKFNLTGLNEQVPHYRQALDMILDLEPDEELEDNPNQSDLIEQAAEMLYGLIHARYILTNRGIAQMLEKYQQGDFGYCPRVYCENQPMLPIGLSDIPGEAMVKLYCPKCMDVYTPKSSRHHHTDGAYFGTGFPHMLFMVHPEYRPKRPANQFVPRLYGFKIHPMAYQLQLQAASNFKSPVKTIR
- Test Method Notes: CK2 kinase assay, CK2A1 (CK2α/β)
- Type: biochemical
- Measurement Setup: Table A; read-out: CK2A1 (CK2α/β) (IC50)
Readings of log10 of IC50 for the listed compounds
Use the decimal logarithm of IC50 (pM).

[[record]]
compound = "COC(=O)NC1CCN(c2cc(C#N)cc(Nc3nc(NC4CC4)c4ncc(C#N)n4n3)c2Cl)C[C@H]1N(C)CC(C)(C)O (stereo in doubt) [Example 767]"
test_target = "CK2A1 (CK2α/β) (Homo sapiens)"
result_number = 4.26

[[record]]
compound = "COC(=O)N1CCC(N2CCN(c3cc(C#N)cc(Nc4nc(NC5CC5)c5ncc(C#N)n5n4)c3Cl)CC2)C1 (stereo not drawn) [Example 591]"
test_target = "CK2A1 (CK2α/β) (Homo sapiens)"
result_number = 3.58

[[record]]
compound = "CC(=O)N1CCN(C2CN(c3cc(C#N)cc(Nc4nc(NC5CC5)c5ncc(C#N)n5n4)c3Cl)C2)CC1 [Example 541]"
test_target = "CK2A1 (CK2α/β) (Homo sapiens)"
result_number = 2.76

[[record]]
compound = "CN(CCC#N)Cc1cc(C#N)cc(Nc2nc(NC3CC3)c3ncc(C#N)n3n2)c1Cl [Example 464]"
test_target = "CK2A1 (CK2α/β) (Homo sapiens)"
result_number = 2.76

[[record]]
compound = "CS(=O)(=O)N1CC(N2CCN(c3cc(C#N)cc(Nc4nc(NC5CC5)c5ncc(C#N)n5n4)c3Cl)CC2)C1 [Example 73]"
test_target = "CK2A1 (CK2α/β) (Homo sapiens)"
result_number = 2.87

[[record]]
compound = "CC(C(N)=O)N1CC2(CCN(c3cc(C#N)cc(Nc4nc(NC5CC5)c5ncc(C#N)n5n4)c3Cl)CC2)C1 (racemic) [Example 802]"
test_target = "CK2A1 (CK2α/β) (Homo sapiens)"
result_number = 3.84


Query: What log10 of IC50 value was documented for this compound, CC1(N2CCOCC2)CCN(c2cc(C(F)F)cc(Nc3nc(NC4CC4)c4ncc(C#N)n4n3)c2Cl)CC1 [Example 244] ?
Response: 2.99

Query: What log10 of IC50 value was documented for this compound, COC(=O)N[C@H]1CCN(c2cc(C#N)cc(Nc3nc(NC4CC4)c4ncc(C#N)n4n3)c2Cl)C[C@@H]1N(C)CC(C)(C)O [Example 765] ?
Response: 4.37

Query: What log10 of IC50 value was documented for this compound, CN1CCN(c2cc(C#N)cc(Nc3nc(NC4CC4)c4ncc(C#N)n4n3)c2Cl)CC1CO (racemic) [Example 698] ?
Response: 3.13

Query: What log10 of IC50 value was documented for this compound, CC(C)(CO)C(=O)N1CC(N2CCN(c3cc(C#N)cc(Nc4nc(NC5CC5)c5ncc(C#N)n5n4)c3Cl)CC2)C1 [Example 494] ?
Response: 3.30

Query: What log10 of IC50 value was documented for this compound, CN1CCN(c2cc(C#N)cc(Nc3nc(NC4CC4)c4ncc(C#N)n4n3)c2Cl)CC1C(C)(C)O (racemic) [Example 34] ?
Response: 2.96

Query: What log10 of IC50 value was documented for this compound, CC(=O)N1CC(N2CCN(c3cc(C(F)F)cc(Nc4nc(NC5CC5)c5ncc(C#N)n5n4)c3Cl)CC2)C1 [Example 266] ?
Response: 3.47

Query: What log10 of IC50 value was documented for this compound, CC(C)(O)CN[C@@H]1CCCN(c2cc(C#N)cc(Nc3nc(NC4CC4)c4ncc(C#N)n4n3)c2Cl)C1 [Example 43] ?
Response: 3.26

Query: What log10 of IC50 value was documented for this compound, N#Cc1cc(Nc2nc(NC3CC3)c3ncc(C#N)n3n2)c(Cl)c(N2CCNCC2=O)c1 [Example 628] ?
Response: 3.99

Query: What log10 of IC50 value was documented for this compound, CCNc1nc(Nc2cc(C#N)cc(N3CC[C@@H]4[C@@H](C3)OC(=O)N4C3COC3)c2Cl)nn2c(C#N)cnc12 (racemic) [Example 838] ?
Response: 2.73

Query: What log10 of IC50 value was documented for this compound, N#Cc1cc(CNCCN2CCOCC2)c(Cl)c(Nc2nc(NC3CC3)c3ncc(C#N)n3n2)c1 [Example 466] ?
Response: 3.12

Query: What log10 of IC50 value was documented for this compound, N#Cc1cc(Nc2nc(NC3CC3)c3ncc(C#N)n3n2)c(Cl)c(N2CCC3(CCCN3)C2)c1 (racemic) [Example 31] ?
Response: 2.79

Query: What log10 of IC50 value was documented for this compound, N#Cc1cc(Nc2nc(NC3CC3)c3ncc(C#N)n3n2)c(Cl)c(C2CCN(C3COC3)CC2)c1 [Example 210] ?
Response: 2.85

Query: What log10 of IC50 value was documented for this compound, COC[C@H](O)CNC1CCN(c2cc(C#N)cc(Nc3nc(NC4CC4)c4ncc(C#N)n4n3)c2Cl)CC1 [Example 145] ?
Response: 3.74

Query: What log10 of IC50 value was documented for this compound, N#Cc1cc(Nc2nc(NC3CC3)c3ncc(C#N)n3n2)c(Cl)c(N2CCC(NCC(O)C(F)(F)F)CC2)c1 (racemic) [Example 139] ?
Response: 2.65

Query: What log10 of IC50 value was documented for this compound, COC(=O)Nc1cc(Nc2nc(NC3CC3)c3ncc(C#N)n3n2)c(Cl)c(N2CC[C@@H](NC(=O)OC)[C@@H](F)C2)c1 (racemic) [Example 202] ?
Response: 2.92

Query: What log10 of IC50 value was documented for this compound, N#Cc1cnc2c(NC3CC3)nc(Nc3cc(C(F)F)cc(N4CCN(CC(F)F)CC4)c3Cl)nn12 [Example 248] ?
Response: 3.51
